system: 786-0 renal; test: NCI tumour cell line growth inhibition, 48 h
reportedMetric: TGI

CC(=O)OC1CC2Oc3ccc(C)cc3C(C)(O2)C1=O (stereo not given): > 100 µM
COC1=CC(=O)C(OC)=C(OC)C1=O: 32.5 µM

// recorded TGI for Cc1cc(Nc2c3ccccc3nc3ccccc23)ccc1NS(C)(=O)=O : 16.7 µM

// recorded TGI for CC1=C(C(=O)Nc2cc(=O)n(C)c(=O)n2C)C(c2ccc([N+](=O)[O-])cc2)C(C(=O)Nc2cc(=O)n(C)c(=O)n2C)=C(C)N1 : > 100 µM

// recorded TGI for CC(=O)C1C(=O)NC(=O)C1=O (stereo not given) : > 100 µM

// recorded TGI for O=C(NNC(c1ccccc1)C(F)(F)F)c1ccncc1 (stereo not given) : > 100 µM

// recorded TGI for Cc1nc([C@H]2CC[C@H]3[C@@H]4CCC5=CC(=O)CC[C@]5(C)[C@H]4CC[C@]23C)cs1 : > 100 µM

// recorded TGI for O=S(=O)(N/N=C/c1cccc(Cl)c1Cl)c1ccccc1 : > 100 µM

// recorded TGI for Cc1ccc(S(=O)(=O)N2C[C@](O)(c3ccccc3)[C@H]2C)cc1 : > 100 µM

// recorded TGI for COc1ccc2c(c1)/C(=C\c1c(C)nc3sc(C)cn13)C(=O)N2 : 72.7 µM
